Target: YOD1 (UniProt Q5VVQ6)
Sequence (whole entry): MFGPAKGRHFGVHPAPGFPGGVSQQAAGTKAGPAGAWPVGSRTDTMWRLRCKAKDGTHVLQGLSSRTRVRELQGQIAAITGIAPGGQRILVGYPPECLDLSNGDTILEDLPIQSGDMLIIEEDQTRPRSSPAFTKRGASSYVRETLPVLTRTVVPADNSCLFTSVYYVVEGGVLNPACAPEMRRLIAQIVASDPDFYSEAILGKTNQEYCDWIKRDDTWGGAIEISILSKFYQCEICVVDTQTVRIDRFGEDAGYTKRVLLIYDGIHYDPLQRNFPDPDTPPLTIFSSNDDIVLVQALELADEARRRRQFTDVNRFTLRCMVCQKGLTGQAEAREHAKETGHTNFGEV
Experiment: log2 ratio of Biotin-Ahx-Ub-VS probe labelling (fragment/DMSO); higher = less target engagement (more negative = stronger competition), active = hit call of the paper (q ≤ 0.05, log2 ratio ≤ -1)
Conditions: compound concentration: 200 uM; treatment time: 3 h
Assignment: determine reported log2 ratio of Biotin-Ahx-Ub-VS probe labelling for the given molecules.
Numbers only.

Some molecules with known log2 ratio of Biotin-Ahx-Ub-VS probe labelling results, for comparison:
>>> print(df.to_string())
                         record_smiles         assayed_target  recorded_value
0  Cn1cc(CN(Cc2ccc(Cl)cc2)C(=O)CCl)cn1  YOD1 (UniProt Q5VVQ6)         -0.0228
1                Cc1cccc(C)c1NC(=O)CCl  YOD1 (UniProt Q5VVQ6)          -0.344

Now take the following molecule into account.
Exercise: Please look up its log2 ratio of Biotin-Ahx-Ub-VS probe labelling: "CN(C)S(=O)(=O)c1ccccc1CNC(=O)CCl"
Solution: 0.0246

====

Assignment: determine reported log2 ratio of Biotin-Ahx-Ub-VS probe labelling for the given molecules.
Target: UniProt O00487
Sequence (O00487 whole entry, the tested form may be a part): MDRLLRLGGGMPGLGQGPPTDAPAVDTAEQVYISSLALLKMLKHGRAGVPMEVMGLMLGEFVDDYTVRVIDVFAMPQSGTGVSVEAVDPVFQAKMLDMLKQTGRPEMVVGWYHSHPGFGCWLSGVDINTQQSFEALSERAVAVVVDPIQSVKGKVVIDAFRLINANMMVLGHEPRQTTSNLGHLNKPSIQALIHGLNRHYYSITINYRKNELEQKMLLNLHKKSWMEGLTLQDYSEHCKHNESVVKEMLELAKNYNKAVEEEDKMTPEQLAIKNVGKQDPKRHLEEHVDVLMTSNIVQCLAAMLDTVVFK
Assay: log2 ratio of Biotin-Ahx-Ub-VS probe labelling (fragment/DMSO); higher = less target engagement (more negative = stronger competition), active = hit call of the paper (q ≤ 0.05, log2 ratio ≤ -1)
Conditions: compound concentration: 200 uM; treatment time: 3 h
Numbers only.

                molecule  recorded_value
0  CCN(C(=O)CCl)C1CCCCC1          0.0502

Count: 5. Required value per item: log2 ratio of Biotin-Ahx-Ub-VS probe labelling.
1. O=C(CCl)N1CCCC1c1ccsc1 (centres undefined)
2. COc1ccc(C2CCCN2C(=O)CCl)c(OC)c1 (centres undefined)
3. O=C(CCl)Nc1cccc2ncccc12
4. O=C(CCl)NC1CCC(C(F)(F)F)CC1 (centres undefined)
5. CN1c2ccccc2C(NC(=O)CCl)CS1(=O)=O (centres undefined)

Solution:
-0.138
-0.0639
0.0189
-0.185
-0.206

Count: 5. Required value per item: log2 ratio of Biotin-Ahx-Ub-VS probe labelling.
1. Cc1conc1C1CN(C(=O)CCl)C1
2. O=C(CCl)NCC1(c2ccccc2)CC1
3. Cc1ccc(N(CCC#N)C(=O)CCl)cc1C
4. CN(Cc1nc2ccccc2[nH]1)C(=O)CCl.Cl
5. O=C(CCl)N1CCCN(C(=O)c2ccc(Cl)cc2)CC1

Solution:
1: -0.115; 2: -0.00244; 3: -0.246; 4: -0.00224; 5: 0.0259
